procedure.text: Apparent Volume of distribution in Sprague-Dawley rat at 5 mg/kg, iv measured after 0.08 to 72 hrs post dose by LC-MS/MS analysis
Format: ADME, organism-based
experimental.context: in vivo, read-out: Vz
endpoint.label: Vd

Qu. # query: Vd of entry CN(C)CCN(C)c1ccc(C#N)c(CN2CCN(c3ccc(Cl)cc3)CC2)c1
Ans. 20.1 L/kg

====

procedure.text: Cmax in beagle dog at 15 mg/kg, po measured after 0.08 to 72 hrs post dose by LC-MS/MS analysis
Assay type: ADME, organism-based, Canis lupus familiaris
Design: dose 15 mg/kg, route oral
experimental.context: in vivo
endpoint.label: Cmax

Qu. # query: Cmax of entry CN(C)CCN(C)c1ccc(C#N)c(CN2CCN(c3ccc(Cl)cc3)CC2)c1
Ans. 94.5 ng/mL

====

procedure.text: Cmax in beagle dog at 5 mg/kg, iv measured after 0.08 to 72 hrs post dose by LC-MS/MS analysis
Assay type: ADME, organism-based, Canis lupus familiaris
Set-up: dose 5 mg/kg, route intravenous
experimental.context: in vivo
endpoint.label: Cmax (ng/mL)
Write the answer as a number in ng/mL, unit excluded.

Qu. # query: Cmax of entry CN(C)CCN(C)c1ccc(C#N)c(CN2CCN(c3ccc(Cl)cc3)CC2)c1
Ans. 532

====

procedure.text: Oral bioavailability in Sprague-Dawley rat at 5 mg/kg measured after 0.08 to 72 hrs after dose by LC-MS/MS analysis
Format: ADME, organism-based
experimental.context: in vivo
endpoint.label: bioavailability
Answer by giving the amount and then stating its unit.

Qu. # query: bioavailability of entry CN(C)CCN(C)c1ccc(C#N)c(CN2CCN(c3ccc(Cl)cc3)CC2)c1
Ans. 39%

====

procedure.text: Cytotoxicity in human Huh7.5 cells assessed as reduction in cell viability incubated for 96 hrs by MTT assay
Type: cell-based
endpoint.label: CC50 at 96 h

Qu. # query: CC50 at 96 h of entry CNCCN(C)c1ccc(C#N)c(CN2CCN(c3ccc(Cl)cc3)CC2)c1
Ans. 15.8 µM

Qu. # query: CC50 at 96 h of entry CN(C)CCN(C)c1ccc(C#N)c(CN2CCN(c3ccc([N+](=O)[O-])cc3)CC2)c1
Ans. 12.8 µM

Qu. # query: CC50 at 96 h of entry CC(C)CCNc1ccc(C#N)c(CN2CCN(c3ccc(Cl)cc3)CC2)c1
Ans. > 200 µM

Qu. # query: CC50 at 96 h of entry CCN1CCCC1CNc1ccc(C#N)c(CN2CCN(c3ccc(Cl)cc3)CC2)c1 (configuration not stated)
Ans. 7.64 µM

Qu. # query: CC50 at 96 h of entry CN(C)CCN(C)c1ccc(C#N)c(CN2CCN(c3ccncc3)CC2)c1
Ans. 44.7 µM

Qu. # query: CC50 at 96 h of entry CC(C)OC(=O)[C@H](C)N[P@](=O)(OC[C@H]1O[C@@H](n2ccc(=O)[nH]c2=O)[C@](C)(F)[C@@H]1O)Oc1ccccc1 [SOFOSBUVIR]
Ans. > 200 µM

Qu. # query: CC50 at 96 h of entry CN(C)CCN(C)c1ccc(C#N)c(CN2CCNCC2)c1
Ans. > 200 µM

====

procedure.text: Selectivity index, ratio of CC50 for cytotoxicity in African green monkey Vero cells to EC50 for Antiviral activity against Coxsackievirus B3 infected in Vero cells
Format: toxicity, cell-based
experimental.context: read-out: Ratio CC50/EC50
endpoint.label: selectivity ratio
Form field (numeric): enter value without unit.

Qu. # query: selectivity ratio of entry CN(C)CCN(C)c1ccc(C#N)c(CN2CCN(c3ccc(Cl)cc3)CC2)c1
Ans. 3
